Quick list: growth per entry.
test system: SK-OV-3 ovarian; assay: NCI-60 one-dose screen, 48 h (100 = growth as untreated, 0 = no growth, -100 = all killed); settings: 10 µM unless noted
The panel holds about 83,000 compounds, 20% with a hit somewhere; the sample as a whole holds those more often.
# unit: % | format: bare number

Take a look at these entries with their results.
{"molecule": "C/C(Cc1ccc(Cl)cc1)=C(\\c1ccc(OCCCN(C)C)cc1)c1ccc(OC(=O)Cc2ccccc2)cc1", "assay_system": "SK-OV-3 ovarian", "growth [%]": 85.6}
{"molecule": "CSC1=Nc2c(c(C)c(-c3ccccc3)n2CCCC(=O)O)C2=NC(=O)C[C@H](C)N12", "assay_system": "SK-OV-3 ovarian", "growth [%]": 130}
{"molecule": "COc1ccccc1N(C(C)=O)C1=C(Cl)C(=O)c2ccccc2C1=O", "assay_system": "SK-OV-3 ovarian", "growth [%]": 17.6}
{"molecule": "CCn1c(-c2cc3c([nH]c4ccccc43)c(-c3cccc(O)c3)n2)n[nH]c1=S", "assay_system": "SK-OV-3 ovarian", "growth [%]": 55.8}

In: Report the value of growth obtained on SK-OV-3 ovarian for Cc1nnc(-c2ccc3c(c2)nc(/C=C/c2ccccc2)n3C2CCCCC2)o1 .
Out: 64.8

In: Report the value of growth obtained on SK-OV-3 ovarian for CCCCCN(CCCCC)CC(O)c1cc(C)c2ccc3cc(C(C)C)ccc3c2c1 (centres undefined) .
Out: 85.6

In: Report the value of growth obtained on SK-OV-3 ovarian for CCCCCCCCCCCCCOC(=O)c1c(C)[nH]c(/C=C2\N=C(c3ccc[nH]3)C=C2OC)c1C .
Out: 47.4

In: Report the value of growth obtained on SK-OV-3 ovarian for O=C(NC1CC(F)C1)c1cc2cccnc2n1-c1ccc(Cl)c(Cl)c1 (centres undefined) .
Out: 104

In: Report the value of growth obtained on SK-OV-3 ovarian for CC(C)N1C(=O)/C(=c2\sc3n(c2=O)C2C(NN=3)N(C)C(=O)N2C)c2ccccc21 (centres undefined) .
Out: 76.3
